Values compiled from patent US9040523B2.

# TESTED ON: CYP3A4 (Homo sapiens, UniProt P08684)
# Sequence (P08684 whole entry): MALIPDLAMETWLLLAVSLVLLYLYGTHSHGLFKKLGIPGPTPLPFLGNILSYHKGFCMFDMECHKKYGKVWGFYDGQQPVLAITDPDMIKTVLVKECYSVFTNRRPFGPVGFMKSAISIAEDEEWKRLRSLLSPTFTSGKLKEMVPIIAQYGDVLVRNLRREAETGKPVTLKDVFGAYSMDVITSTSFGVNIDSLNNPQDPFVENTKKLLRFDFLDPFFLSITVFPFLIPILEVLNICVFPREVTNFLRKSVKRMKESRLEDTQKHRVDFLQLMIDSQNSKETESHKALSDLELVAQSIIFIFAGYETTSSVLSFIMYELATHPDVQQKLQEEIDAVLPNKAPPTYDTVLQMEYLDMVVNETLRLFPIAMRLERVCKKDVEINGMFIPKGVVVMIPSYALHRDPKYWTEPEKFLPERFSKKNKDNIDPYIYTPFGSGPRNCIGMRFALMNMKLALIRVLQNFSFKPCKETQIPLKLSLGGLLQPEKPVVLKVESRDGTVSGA
# RUN DESCRIPTION: Cytochrome P450 inhibition, Protocol A, cDNA expressed proteins, fluorogenic substrates
# Format: in vitro ADME
# DETAILS: % inhibition at 10 μM; substrate BQ; cDNA expressed protein
REPORTED PROPERTY: hCYP3A4_BQ_Pct_Inh (%)

> print(dat)
                                   compound  observed.measurement
1    CCc1ccc(C2=NCc3ccc(Cl)cc3-n3cccc32)cc1                    66
2  CC(=O)c1ccc(C2=NCc3cccc(Cl)c3-n3cccc32)cc1 [Compound 15]                    40
3  CC(=O)c1ccc(C2=NCc3c(Cl)cccc3-n3cccc32)cc1 [drawing 88]                    33
4  CC(=O)c1cc(C2=NCc3c(Cl)cccc3-n3cccc32)ccc1F [Compound 19]                    49
5  CC(=O)c1ccc(C2=NCc3c(Cl)cc(Cl)cc3-n3cccc32)cc1 [Compound 22]                    63
6  CC(=O)c1ccc(C2=NCc3ccc(Cl)cc3-n3cccc32)cc1 [drawing 86]                    50

(I) CC(=O)c1cccc(C2=NCc3c(Cl)cccc3-n3cccc32)c1 [Compound 16]
(II) CS(=O)(=O)c1ccc(C2=NCc3c(Cl)cccc3-n3cccc32)cc1 [drawing 90]
## Input From the recorded data, which exceeds the other in hCYP3A4_BQ_Pct_Inh: I or II ? // output: label of the selected item
## Output I
